- target-of-assay: 5-HT2C receptor (Homo sapiens (Human), UniProt P28335)
- Sequence (P28335 whole entry, looked up): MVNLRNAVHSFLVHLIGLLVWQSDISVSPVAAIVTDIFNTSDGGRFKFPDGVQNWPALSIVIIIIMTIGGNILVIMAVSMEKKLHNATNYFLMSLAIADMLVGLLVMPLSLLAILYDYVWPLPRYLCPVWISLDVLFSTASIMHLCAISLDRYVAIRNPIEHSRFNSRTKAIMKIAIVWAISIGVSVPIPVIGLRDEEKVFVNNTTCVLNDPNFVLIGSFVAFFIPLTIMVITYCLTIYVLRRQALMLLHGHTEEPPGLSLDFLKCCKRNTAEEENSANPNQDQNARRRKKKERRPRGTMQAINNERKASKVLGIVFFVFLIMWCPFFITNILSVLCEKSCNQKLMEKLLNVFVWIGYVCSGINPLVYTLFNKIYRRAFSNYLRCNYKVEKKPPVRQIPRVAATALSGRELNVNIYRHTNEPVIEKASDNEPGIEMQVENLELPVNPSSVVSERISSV
- method-notes: 5-HT2C agonist radioligand binding ([125I]DOI)
- condition-details: radioligand [125I](±)DOI; read-out: 5-HT2C, Ki
pKi: −log10 of the molar value.
readout-label: pKi

> print(dat)
                   smiles.input  assay.result
1  COc1cc(SC(F)(F)F)c(OC)cc1CCN          9.26

---

- method-notes: PK in Sprague-Dawley rats (plasma, brain, CSF)
- Format: in vivo, rat
- condition-details: male, Sprague-Dawley, rat; plasma; IV 1 mg/kg
readout-label: Tmax (min)

> print(dat)
                   smiles.input  readout.label  unit.label  assay.result
1  COc1cc(SC(F)(F)F)c(OC)cc1CCN           Tmax         min          4.98
